Assignment: determine reported residual activity for the given molecules.
SYSTEM TESTED: LIMK1 (human)
TEST DESCRIPTION: radiometric filter-binding kinase assay, Kinase HotSpot
TEST CONDITIONS: compound 0.5 µM; ATP 10 µM
Hey, just the number and the unit after it is fine.

Examples with answers:
{"COMPOUND STRING": "c1ccc(-c2n[nH]c3c2oc2ccccc23)cc1", "residual activity": "71.2%"}
{"COMPOUND STRING": "O=C1Nc2ccc(Cl)cc2/C1=C/c1cc(Cl)c(O)c(Cl)c1", "residual activity": "83.7%"}
{"COMPOUND STRING": "CC#CC(=O)Nc1cc2c(Nc3ccc(F)c(Cl)c3)ncnc2cn1", "residual activity": "84.2%"}
{"COMPOUND STRING": "N#C/C(=C(/N)Sc1ccc(N)cc1)c1ccccc1C(F)(F)F", "residual activity": "98.7%"}

Quick one: give me residual activity for each item below, same order please.
1. CC[n+]1c(/C=C/N(C)c2ccccc2)n(-c2ccccc2)c2ccc(-c3nc4ccccc4s3)cc21
2. CNC(=O)c1cc(Oc2ccc(NC(=O)Nc3ccc(Cl)c(C(F)(F)F)c3)cc2)ccn1

1: 98.3%; 2: 76.8%

Quick one: give me residual activity for each item below, same order please.
1. CCC(=O)Nc1ccc2ncnc(Nc3cccc(Br)c3)c2c1
2. O=C1NC(=O)/C(=C/c2ccc3c(c2)OC(F)(F)O3)S1
3. Cc1[nH]c(/C=C2\C(=O)Nc3ccc(S(=O)(=O)N(C)c4cccc(Cl)c4)cc32)c(C)c1C(=O)N1CCN(C)CC1

88.7%
96.4%
87.9%

May I ask what residual activity has been recorded for `Nc1ncnc2[nH]nc(Nc3ccc(F)cc3)c12` ?
95.2%

Sourced from the kinase profiling compilation of Christmann-Franck et al. (2016)
